# Tested on: 485176-168-R4-J1-PDC complex spheroid growth;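 note: spheroids exposed to compounds for seven days before readout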
# ASSAY REMARKS: Anticancer human tumor 485176-168-R4-J1-PDC patient-derived pancreatic adenocarcinoma cell line growth inhibition [RAS]
# CONDITION SUMMARY: curve of first compound; second compound 10 µM
# From the text: RAS pathway inhibitors in Combinations in Complex Spheroids A high-throughput screen of multi-cell type tumor spheroids was designed to identify active combinations of RAS pathway inhibitors and targeted small molecules. Complex spheroids include a stromal component modeled by human endothelial cells (HUVEC) and fibroblasts modeled by human mesenchymal stem cells (MSCs). […] Compounds. […] If the clinical Cmax for an agent had not been determined, the highest concentration tested was 10 microM. […]
MEASURE NAME: IC50 (nM)

I. CC1(C)CCC(Nc2ncc(C(F)(F)F)c(-c3c[nH]c4c(P(C)(C)=O)c(C#N)ccc34)n2)CN1 (stereo not drawn) + C#Cc1c(F)ccc2cc(O)cc(-c3ncc4c(N5CC6CCC(C5)N6)nc(OCC56CCCN5CC(F)C6)nc4c3F)c12
II. CC1(O)CCCC1n1c(=O)c(C(F)F)cc2cnc(NC3CCN(S(C)(=O)=O)CC3)nc21 (stereo not drawn) + C#Cc1c(F)ccc2cc(O)cc(-c3ncc4c(N5CC6CCC(C5)N6)nc(OCC56CCCN5CC(F)C6)nc4c3F)c12
Prompt line: Hey, which is lower on measured IC50, I or II ? In your reply, give the label of the chosen option.
Response line: I
(I: 114 nM, II: 2900 nM)
